Cited source for all entries: patent US20060094668A1

experiment: clinical; conditions: human, in vivo
OUTCOME MEASURE: concentration at 10 h (ng/mL)
API: value field is a number in ng/mL; no unit string.

Look up concentration at 10 h: C[C@H]1O[C@@H](O[C@H]2[C@@H](O)C[C@H](O[C@H]3[C@@H](O)C[C@H](O[C@H]4CC[C@@]5(C)[C@H](CC[C@@H]6[C@@H]5C[C@@H](O)[C@]5(C)[C@@H](C7=CC(=O)OC7)CC[C@]65O)C4)O[C@@H]3C)O[C@@H]2C)C[C@H](O)[C@@H]1O [Digoxin]
0.451

---

experiment: Urinary digoxin pharmacokinetics (Ae, CLr), digoxin alone vs with tigecycline; settings: human, urine and plasma, oral, 0.25 mg, CLr, digoxin renal clearance, Mean ± SD, N = 20
OUTCOME MEASURE: CL renal (mL/min/kg)
API: value field is a number in mL/min/kg; no unit string.

Look up CL renal: C[C@H]1O[C@@H](O[C@H]2[C@@H](O)C[C@H](O[C@H]3[C@@H](O)C[C@H](O[C@H]4CC[C@@]5(C)[C@H](CC[C@@H]6[C@@H]5C[C@@H](O)[C@]5(C)[C@@H](C7=CC(=O)OC7)CC[C@]65O)C4)O[C@@H]3C)O[C@@H]2C)C[C@H](O)[C@@H]1O
1.82

---

experiment: clinical; conditions: human, in vivo, AUC, serum tigecycline, Mean ± SD
OUTCOME MEASURE: AUC (ng·h/mL)
API: value field is a number in ng·h/mL; no unit string.

Look up AUC: CN(C)c1cc(NC(=O)CNC(C)(C)C)c(O)c2c1C[C@H]1C[C@H]3[C@H](N(C)C)C(O)=C(C(N)=O)C(=O)[C@@]3(O)C(O)=C1C2=O [Tigecycline]
2840

---

experiment: Urinary digoxin pharmacokinetics (Ae, CLr), digoxin alone vs with tigecycline; conditions: human, urine and plasma, oral, 0.25 mg, CLr, digoxin, Geo. Mean, N = 20
OUTCOME MEASURE: CL renal
Write the figure, then the unit, nothing else.

Look up CL renal: C[C@H]1O[C@@H](O[C@H]2[C@@H](O)C[C@H](O[C@H]3[C@@H](O)C[C@H](O[C@H]4CC[C@@]5(C)[C@H](CC[C@@H]6[C@@H]5C[C@@H](O)[C@]5(C)[C@@H](C7=CC(=O)OC7)CC[C@]65O)C4)O[C@@H]3C)O[C@@H]2C)C[C@H](O)[C@@H]1O
1.79 mL/min/kg

---

assay: clinical; conditions: human, in vivo
OUTCOME MEASURE: concentration at 4 h (ng/mL)
API: value field is a number in ng/mL; no unit string.

Look up concentration at 4 h: C[C@H]1O[C@@H](O[C@H]2[C@@H](O)C[C@H](O[C@H]3[C@@H](O)C[C@H](O[C@H]4CC[C@@]5(C)[C@H](CC[C@@H]6[C@@H]5C[C@@H](O)[C@]5(C)[C@@H](C7=CC(=O)OC7)CC[C@]65O)C4)O[C@@H]3C)O[C@@H]2C)C[C@H](O)[C@@H]1O [Digoxin]
0.645

---

test: clinical; conditions: human, in vivo
OUTCOME MEASURE: concentration at 12 h (ng/mL)
API: value field is a number in ng/mL; no unit string.

Look up concentration at 12 h: C[C@H]1O[C@@H](O[C@H]2[C@@H](O)C[C@H](O[C@H]3[C@@H](O)C[C@H](O[C@H]4CC[C@@]5(C)[C@H](CC[C@@H]6[C@@H]5C[C@@H](O)[C@]5(C)[C@@H](C7=CC(=O)OC7)CC[C@]65O)C4)O[C@@H]3C)O[C@@H]2C)C[C@H](O)[C@@H]1O [Digoxin]
0.405

---

experiment: clinical; settings: human, in vivo, Vss, serum tigecycline, Geo. Mean
OUTCOME MEASURE: Vd (L/kg)
API: value field is a number in L/kg; no unit string.

Look up Vd: CN(C)c1cc(NC(=O)CNC(C)(C)C)c(O)c2c1C[C@H]1C[C@H]3[C@H](N(C)C)C(O)=C(C(N)=O)C(=O)[C@@]3(O)C(O)=C1C2=O
6.43

---

assay: clinical; details: human, in vivo, Vss, serum tigecycline, Mean ± SD
OUTCOME MEASURE: Vd (L/kg)
API: value field is a number in L/kg; no unit string.

Look up Vd: CN(C)c1cc(NC(=O)CNC(C)(C)C)c(O)c2c1C[C@H]1C[C@H]3[C@H](N(C)C)C(O)=C(C(N)=O)C(=O)[C@@]3(O)C(O)=C1C2=O
6.53

---

test: clinical; conditions: human, in vivo
OUTCOME MEASURE: concentration at 24 h (ng/mL)
API: value field is a number in ng/mL; no unit string.

Look up concentration at 24 h: C[C@H]1O[C@@H](O[C@H]2[C@@H](O)C[C@H](O[C@H]3[C@@H](O)C[C@H](O[C@H]4CC[C@@]5(C)[C@H](CC[C@@H]6[C@@H]5C[C@@H](O)[C@]5(C)[C@@H](C7=CC(=O)OC7)CC[C@]65O)C4)O[C@@H]3C)O[C@@H]2C)C[C@H](O)[C@@H]1O
0.33
